Target: human GLP-1 receptor (GLP-1R) (human, UniProt P43220 24-463)
Assay: cell-based or functional assay
Kindly state hGLP1R cAMP EC50 ratio for each of the entries shown.
Enter the number alone.

// returns reported hGLP1R cAMP EC50 ratio for input XXEGTFTSDYSIXLDXKAQXEFIEYLIAGGPSSG (D-Tyr1; Aib2; αMeL13; Orn16; K17 conjugated to (2-[2-(2-Amino-ethoxy)-ethoxy]-acetyl)2-(c-Glu)-CO-(CH2)18-CO2H ('c-Glu' as printed, presumably γ-Glu); Aib20; C-terminal amide (NH2))
0.172

// returns reported hGLP1R cAMP EC50 ratio for input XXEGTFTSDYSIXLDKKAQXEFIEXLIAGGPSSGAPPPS (D-Tyr1; Aib2; αMeL13; K17 conjugated to (2-[2-(2-Amino-ethoxy)-ethoxy]-acetyl)2-(γ-Glu)-CO-(CH2)16-CO2H; Aib20; αMeY25; C-terminal amide (NH2))
0.169

// returns reported hGLP1R cAMP EC50 ratio for input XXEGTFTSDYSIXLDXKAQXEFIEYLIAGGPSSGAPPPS (D-Tyr1; Aib2; αMeL13; Orn16; K17 conjugated to (2-[2-(2-Amino-ethoxy)-ethoxy]-acetyl)2-(γ-Glu)-CO-(CH2)16-CO2H; Aib20; C-terminal amide (NH2))
0.299

// returns reported hGLP1R cAMP EC50 ratio for input XXEGTFTSDYSIXLDXKAQXAFVXYLIAGGPSSGAPPPS (D-Tyr1; Aib2; αMeL13; Orn16; K17 conjugated to (2-[2-(2-Amino-ethoxy)-ethoxy]-acetyl)2-(γ-Glu)-CO-(CH2)18-CO2H; Aib20; D-Glu24; C-terminal amide (NH2))
0.0805

// returns reported hGLP1R cAMP EC50 ratio for input XXEGTFTSDYSIXLDXKAQXEFIEXLIEGGPSSGAPPPS (D-Tyr1; Aib2; αMeL13; Orn16; K17 conjugated to (2-[2-(2-Amino-ethoxy)-ethoxy]-acetyl)2-(γ-Glu)-CO-(CH2)18-CO2H; Aib20; αMeY25; C-terminal amide (NH2))
0.115

// returns reported hGLP1R cAMP EC50 ratio for input YXEGTFTSDYSIXLDKKAQXEFIEXLIAGGPSSGAPPPS (Aib2; αMeL13; K17 conjugated to (2-[2-(2-Amino-ethoxy)-ethoxy]-acetyl)2-(γ-Glu)-CO-(CH2)18-CO2H; Aib20; αMeY25; C-terminal amide (NH2))
0.386

// returns reported hGLP1R cAMP EC50 ratio for input XXEGTFTSDYSIXLDKKAQXEFIEXLIEGGPSSGAPPPS (D-Tyr1; Aib2; αMeL13; K17 conjugated to (2-[2-(2-Amino-ethoxy)-ethoxy]-acetyl)2-(γ-Glu)-CO-(CH2)18-CO2H; Aib20; αMeY25; C-terminal amide (NH2))
0.114

// returns reported hGLP1R cAMP EC50 ratio for input XXEGTFTSDYSIXLDKKAQXAFVXYLIAGGPSSGAPPPS (D-Tyr1; Aib2; αMeL13; K17 conjugated to (2-[2-(2-Amino-ethoxy)-ethoxy]-acetyl)2-(γ-Glu)-CO-(CH2)18-CO2H; Aib20; D-Glu24; C-terminal amide (NH2))
0.0259

// returns reported hGLP1R cAMP EC50 ratio for input XXEGTFTSDYSIXLDXKAQXAFVEYLIEGGPSSGAPPPS (D-Tyr1; Aib2; αMeL13; Orn16; K17 conjugated to (2-[2-(2-Amino-ethoxy)-ethoxy]-acetyl)2-(γ-Glu)-CO-(CH2)18-CO2H; Aib20; C-terminal amide (NH2))
0.171

FYI, the data here is from patent US20200024322A1.
